Reference source: PubChem BioAssay

System: Wnt5a (protein binding on small-molecule microarray)
Assay: Wnt5a binders on small-molecule microarray, primary screen, biophysical, 635/667 nm fluorescence (AID 1142);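 note: fluorescence read at 667 nm with signal to noise per printed feature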
Conditions: 635 nm fluorescence, higher = more signal
value.kind: composite z-score

The following molecules have reported results that may help.
O=C1O[C@@H](c2ccccc2)[C@@H](c2ccccc2)N2[C@@H](c3ccc(O)cc3)[C@]3(C(=O)Nc4ccccc43)[C@@H](C(=O)Nc3nc4ccccc4s3)[C@H]12 = 1.09
COCCOC(=O)N1C(=O)[C@@]2(c3cc(C#CC4=CCCCC4)ccc31)[C@H](c1ccccc1OCCO)N1[C@H](c3ccccc3)[C@H](c3ccccc3)OC(=O)[C@H]1[C@@H]2C(=O)N1CCc2cc(OC)c(OC)cc2C1 = 0.316
COC(=O)[C@@]1(Cc2ccccc2)[C@H]2c3cc(C(=O)N4CCCC4)n(Cc4cc(F)cc5c4OCOC5)c3C[C@H]2CN1C(=O)c1ccccc1 = 0.503
COc1ccc(C(O)C2C=CC3C(=O)N(c4ccccc4)C(=O)C3N2Nc2ccccc2)cc1OCc1ccccc1 (configuration not stated) = 0.302
C=CC[C@@]1(C(=O)O)N=C(c2ccc(OCCCO)cc2)O[C@@H]1c1ccccc1 = 1.45

## Task Form entry - test system: Wnt5a (protein binding on small-molecule microarray); read-out: composite z-score; molecule: CC(C)c1ccc(NN2C(C(O)c3ccco3)C=CC3C(=O)N(c4ccccc4)C(=O)C32)cc1 (configuration not stated)
## Result 0.445

## Task Form entry - test system: Wnt5a (protein binding on small-molecule microarray); read-out: composite z-score; molecule: Cc1ccc(C(C)CC(O)C2C=CC3C(=O)N(c4ccccc4)C(=O)C3N2Nc2ccc(C(C)C)cc2)o1 (configuration not stated)
## Result 0.301

###

Target: Neurogenic locus notch homolog protein 2 (Homo sapiens) (UniProt Q04721)
Sequence (Q04721 whole entry, looked up): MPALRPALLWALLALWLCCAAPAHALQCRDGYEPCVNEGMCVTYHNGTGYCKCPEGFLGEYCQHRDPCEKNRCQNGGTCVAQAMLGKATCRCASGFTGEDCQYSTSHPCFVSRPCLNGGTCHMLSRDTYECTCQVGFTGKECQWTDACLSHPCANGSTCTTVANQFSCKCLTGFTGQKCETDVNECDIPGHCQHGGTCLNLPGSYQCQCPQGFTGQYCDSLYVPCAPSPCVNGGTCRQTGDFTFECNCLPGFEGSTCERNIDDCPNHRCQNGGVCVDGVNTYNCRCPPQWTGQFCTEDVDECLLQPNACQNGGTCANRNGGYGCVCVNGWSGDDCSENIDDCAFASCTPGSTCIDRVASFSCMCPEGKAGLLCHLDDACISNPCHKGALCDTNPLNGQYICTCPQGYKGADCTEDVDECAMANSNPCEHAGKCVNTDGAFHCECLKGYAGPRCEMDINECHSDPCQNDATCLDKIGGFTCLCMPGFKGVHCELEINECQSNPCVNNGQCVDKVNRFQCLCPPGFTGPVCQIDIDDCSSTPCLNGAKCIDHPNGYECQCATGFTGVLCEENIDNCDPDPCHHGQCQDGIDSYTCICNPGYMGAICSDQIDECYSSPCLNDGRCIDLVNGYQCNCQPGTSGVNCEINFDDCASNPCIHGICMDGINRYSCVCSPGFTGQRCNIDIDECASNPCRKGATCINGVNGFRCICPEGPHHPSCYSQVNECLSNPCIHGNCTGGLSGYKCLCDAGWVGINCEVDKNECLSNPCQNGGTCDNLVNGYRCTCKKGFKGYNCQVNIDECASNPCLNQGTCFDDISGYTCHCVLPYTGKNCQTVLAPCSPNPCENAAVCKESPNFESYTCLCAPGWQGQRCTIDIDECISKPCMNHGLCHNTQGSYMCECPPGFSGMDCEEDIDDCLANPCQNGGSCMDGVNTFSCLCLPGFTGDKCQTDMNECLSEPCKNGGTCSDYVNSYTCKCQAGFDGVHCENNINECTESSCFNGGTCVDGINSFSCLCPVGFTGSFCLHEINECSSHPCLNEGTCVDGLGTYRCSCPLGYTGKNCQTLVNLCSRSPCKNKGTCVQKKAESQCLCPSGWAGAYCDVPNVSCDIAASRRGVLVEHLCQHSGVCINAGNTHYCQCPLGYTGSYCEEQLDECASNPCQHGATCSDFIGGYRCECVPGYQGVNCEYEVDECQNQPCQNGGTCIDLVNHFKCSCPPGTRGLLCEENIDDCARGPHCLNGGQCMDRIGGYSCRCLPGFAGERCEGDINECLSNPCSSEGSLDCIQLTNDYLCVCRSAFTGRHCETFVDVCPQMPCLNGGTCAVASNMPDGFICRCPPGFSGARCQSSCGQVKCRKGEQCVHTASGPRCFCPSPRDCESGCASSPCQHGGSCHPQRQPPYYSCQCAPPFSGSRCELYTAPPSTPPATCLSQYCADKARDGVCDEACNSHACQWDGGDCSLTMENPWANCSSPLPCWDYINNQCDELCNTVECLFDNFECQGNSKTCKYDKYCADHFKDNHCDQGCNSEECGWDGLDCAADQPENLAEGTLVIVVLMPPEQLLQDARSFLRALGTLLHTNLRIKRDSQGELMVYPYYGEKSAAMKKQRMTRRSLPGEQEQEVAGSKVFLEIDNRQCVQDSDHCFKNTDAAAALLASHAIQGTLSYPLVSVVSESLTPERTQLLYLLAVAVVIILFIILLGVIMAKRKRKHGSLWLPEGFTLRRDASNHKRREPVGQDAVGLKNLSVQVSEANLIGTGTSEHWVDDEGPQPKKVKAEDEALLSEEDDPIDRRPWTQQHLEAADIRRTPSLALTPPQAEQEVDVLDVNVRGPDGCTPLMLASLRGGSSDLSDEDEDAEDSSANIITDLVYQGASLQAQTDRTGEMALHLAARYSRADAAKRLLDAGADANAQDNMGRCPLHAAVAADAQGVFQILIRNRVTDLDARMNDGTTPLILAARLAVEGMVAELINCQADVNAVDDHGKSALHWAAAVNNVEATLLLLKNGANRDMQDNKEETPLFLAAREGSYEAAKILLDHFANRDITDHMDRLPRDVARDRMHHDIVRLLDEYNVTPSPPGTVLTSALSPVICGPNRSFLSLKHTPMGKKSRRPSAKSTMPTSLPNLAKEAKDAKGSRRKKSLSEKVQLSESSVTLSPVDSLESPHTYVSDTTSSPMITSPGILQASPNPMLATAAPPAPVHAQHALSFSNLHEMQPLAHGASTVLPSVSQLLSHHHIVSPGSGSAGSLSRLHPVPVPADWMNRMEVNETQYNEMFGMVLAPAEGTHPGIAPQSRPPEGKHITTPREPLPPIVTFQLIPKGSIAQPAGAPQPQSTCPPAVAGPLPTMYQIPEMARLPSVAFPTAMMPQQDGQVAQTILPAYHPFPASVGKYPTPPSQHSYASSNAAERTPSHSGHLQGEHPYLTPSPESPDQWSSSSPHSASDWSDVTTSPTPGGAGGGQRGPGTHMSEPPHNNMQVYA
Experiment: Notch2 binders on small-molecule microarrays, primary screen, biochemical, small-molecule microarray, 635 nm fluorescence, stem cell growth factors (AID 1073)
Settings: Notch2 binding, higher = more signal
value.kind: composite z-score
The reply should be a number, written without any unit.

The following molecules have reported results that may help.
COCCOC(=O)N1C(=O)[C@@]2(c3cc(C#CCNC(N)=O)ccc31)[C@H](C(=O)N1CCCCCCC1)[C@H]1C(=O)O[C@H](c3ccccc3)[C@H](c3ccccc3)N1[C@@H]2c1ccc(O)cc1 = 0.845
C[C@]1(C(=O)O)c2ccccc2C(=O)N(Cc2ccccc2)[C@H]1c1ccc(CO)cc1 = -1.24
CC=CC(O)C1C=CC2C(=O)N(C)C(=O)C2N1N1CCCCC1 (stereo unspecified) = 1.45

## Task Which composite z-score reading was recorded for the molecule COC(=O)C[C@H]1O[C@]2(C(=O)N(C)c3ccccc32)[C@@H](C)[C@@H]1[Si](C)(C)c1ccc(C)cc1 ?
## Result 0.778

## Task Which composite z-score reading was recorded for the molecule C=CCN1C(=O)[C@@]2(CCC(=O)OC(C)(C)C)N=C(c3ccc(OCCCO)cc3)O[C@H]2c2ccccc21 ?
## Result 0.724

## Task Which composite z-score reading was recorded for the molecule COC(=O)[C@@]1(Cc2ccc(OC)cc2)[C@H]2c3cc(C(=O)N(C)C)n(Cc4ccccc4)c3C[C@H]2CN1C(=O)c1ccccc1 ?
## Result 0.571

## Task Which composite z-score reading was recorded for the molecule CC(CO)N1C(=O)[C@@H]2C3C(=O)OCCC/C=C\[C@H]3OC23C=CCN(Cn2nnc4ccccc42)C(=O)[C@@H]13 (stereo partly specified) ?
## Result -0.722

## Task Which composite z-score reading was recorded for the molecule CCCC[C@@H]1C[C@H]1[C@@H](NC(=O)c1ccccc1)c1ccc(Cl)cc1 ?
## Result -2

## Task Which composite z-score reading was recorded for the molecule O=C1OCC=C[C@H]2OC34C=CCN(c5ccc(Cl)cc5)C(=O)[C@H]3N(CCCCCO)C(=O)[C@@H]4[C@@H]12 (stereo partly specified) ?
## Result -1.07

###

Assay: binders of probe aFGF10 on microarray, primary screen, stem cell growth factor project, biochemical, small-molecule microarray, fluorescence 635/667 (AID 1071);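 note: score merges 667 nm spot intensity and signal to noise from triplicate slides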
Details: higher = more signal
value.kind: composite z-score
The reply should be a number, written without any unit.

The following molecules have reported results that may help.
[N-]=[N+]=NCc1ccccc1C[C@@]1(C(N)=O)N=C(c2ccc(OCCCO)cc2)O[C@@H]1c1ccccc1CN=[N+]=[N-] = 0.972
O=C1O[C@@H](c2ccccc2)[C@@H](c2ccccc2)N2[C@@H](c3ccc(O)cc3)[C@]3(C(=O)Nc4ccc(C#CCCO)cc43)[C@@H](C(=O)Nc3nc4ccccc4s3)[C@H]12 = 0.987

Next molecule, composite z-score to be filled in.
## Task Which composite z-score reading was recorded for the molecule NC(=O)NCC#Cc1ccc2c(c1)[C@]1(C(=O)N2)[C@H](C(=O)O)[C@H]2C(=O)O[C@H](c3ccccc3)[C@H](c3ccccc3)N2[C@@H]1c1ccccc1OCCO ?
## Result 0.776

###

Target: Focal adhesion kinase 1 (Homo sapiens)
Assay: small-molecule microarray binders of FAK, primary screen, biochemical, 635/667 nm fluorescence, BSA, DTT (AID 1130);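 note: composite of spot emission at 667 nm and signal to noise over triplicate slides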
Conditions: PTK2 binding, 635 nm fluorescence, higher = more signal
value.kind: composite z-score
The reply should be a number, written without any unit.

CCOC(=O)[C@H]1C/C=C/C[C@H](C(=O)OCC)C(=O)O[C@H]2[C@@H](OC)O[C@H](CO)[C@@H](OC(=O)Nc3ccc(OC)cc3)[C@@H]2OC1=O = 0.768
COCCOC(=O)N1C(=O)[C@@]2(c3ccccc31)[C@H](c1ccc(OCCO)cc1)N1[C@H](c3ccccc3)[C@H](c3ccccc3)OC(=O)[C@H]1[C@@H]2C(=O)Nc1nc2ccccc2s1 = 0.72
C=CC[C@@H](OC(=O)Nc1ccc(OC)cc1)c1ccc(OCCO)cc1 = -0.676
O=C1OCCC=C[C@H]2OC34C=CCN(c5ccc(Cl)cc5)C(=O)[C@H]3N(CCCCCO)C(=O)[C@@H]4C12 (stereo partly drawn) = -0.226

## Task Which composite z-score reading was recorded for the compound CC(C)CNC(=O)[C@@H]1c2ccccc2C(=O)N(Cc2cc(F)cc(C(F)(F)F)c2)[C@H]1c1ccc(CO)cc1 ?
## Result 0.0403

## Task Which composite z-score reading was recorded for the compound COc1ccc(NC(=O)O[C@H]2[C@H](OC(=O)Nc3ccc4c(c3)OCO4)[C@@H](OC(=O)Nc3ccc4c(c3)OCO4)[C@@H](OC)O[C@@H]2CO)cc1 ?
## Result 0.316

## Task Which composite z-score reading was recorded for the compound CC(C)c1ccc(NN2C(C(O)c3ccco3)C=CC3C(=O)N(c4ccccc4)C(=O)C32)cc1 (stereo not drawn) ?
## Result 1.14

###

Assay: E. coli acrAB mutant growth effects, primary screen, E. coli filamentation inducers, strain DRC39, OD650, 48 h (AID 1179);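 note: screen aims at cell division blockers that make cells filament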
Conditions: E. coli DRC39 delta-acrAB growth, higher = more signal, called active from +8 up or from −8 down
Reported z-score by item:
The reply should be a number, written without any unit.

The following molecules have reported results that may help.
C[C@]12C(=O)N(CCCCCCO)[C@@H]3C(=O)N(c4ccc(Cl)cc4)CC=CC31O[C@@H]1/C=C\CCCOC(=O)C12 (some centres undefined) = 0.692
[N-]=[N+]=NCc1ccccc1C[C@@]1(C(=O)NCCN2CCOCC2)N=C(c2ccc(OCCCO)cc2)O[C@@H]1c1ccccc1N=[N+]=[N-] = -0.456
CN(C)CCCNC(=O)[C@@H]1c2ccccc2C(=O)N(CC23CC4CC(CC(C4)C2)C3)[C@H]1c1ccc(CO)cc1 = 0.401

Next molecule, z-score to be filled in.
## Task Which z-score reading was recorded for the molecule C=CCN1C(=O)[C@@]2(CCC(=O)OC(C)(C)C)N=C(c3ccc(OCCCO)cc3)O[C@H]2c2ccccc21 ?
## Result -0.242

###

Assay: basal 3T3-L1 adipocyte mitochondrial potential changes, profiling panel, cell-based, JC-1 fluorescence, 3T3-L1 adipocytes, 24 h, 100 nL compound (AID 1168); note: test concentration not given here
Settings: JC-1 mitochondrial fluorescence, higher = more signal, called active from +8 up or from −8 down
Reported z-score by item:
The reply should be a number, written without any unit.

The following compounds have reported results that may help.
C=C(/C(=C/C[C@@H](OC(=O)c1ccncc1)c1ccc(OCCO)cc1)c1cc(C(=O)OC)ccc1OC)C(C)C = 0.436
CCOC(=O)C[C@H]1[C@H](OC(=O)c2ccc(-c3ccccc3)cc2)[C@@H](NC(=O)c2ccc3ccccc3n2)c2cc(OCCCO)ccc2N1C(=O)c1ccccc1 = -0.248
CC1CC/C=C\[C@H]2OC34C=CCN(C(C)C)C(=O)[C@H]3N(CCCCCO)C(=O)[C@@H]4C2C(=O)O1 (some centres not stated) = 0.633

## Task Which z-score reading was recorded for the compound CCOC(=O)[C@H]1C/C=C/C[C@H](C(=O)OCC)C(=O)O[C@H]2[C@@H](OC)O[C@H](CO)[C@@H](OC(=O)CCc3ccccc3)[C@@H]2OC1=O ?
## Result 0.352

## Task Which z-score reading was recorded for the compound NCCCCCCNC(=O)[C@H]1C[C@H]2C(=O)N[C@@H](Cc3ccccc3)C(=O)N2[C@H]1c1ccc(O)cc1 ?
## Result 0.0433

## Task Which z-score reading was recorded for the compound C=C(COC)/C(=C/C[C@@H](OC(=O)c1ccncc1)c1cccc(OCCO)c1)c1cnc2ccccc2c1 ?
## Result -1.76

## Task Which z-score reading was recorded for the compound O=c1cccc(-c2ccc(C(F)(F)F)cc2)o1 ?
## Result 1.75
